tested on: HBL 100 (Breast); experiment: MTT cytotoxicity assay, 48 hours (Example 14); type: cell-based, human; details: HBL100, 100 pM
Non-standard residues stand in square brackets, D forms with d. Residues, ends and D or L forms follow the SMILES beside them. *: point of attachment. Octanoyl = CCCCCCCC(=O)*; Ac5c = NC1(C(=O)O)CCCC1; Deg = CCC(N)(CC)C(=O)O; Aib = CC(C)(N)C(=O)O; Butyryl = CCCC(=O)*
Assignment: determine reported Percentage cytotoxicity for the given compounds.
Supply the numeric figure in %, leaving out any unit text.

Entry CC(C)C[C@H](NC(=O)[C@H](Cc1c[nH]cn1)NC(=O)C1(NC(=O)[C@@H](NC(=O)[C@H](C)NC(=O)[C@H](Cc2c[nH]c3ccccc23)NC(=O)[C@H](CCC(N)=O)NC(=O)[C@H](N)Cc2ccccc2)C(C)C)CCCC1)C(N)=O [SEQ ID: 10, D-Phe-Gln-Trp-Ala-Val-Ac5c-His-Leu-NH2] (H-[dF]QWAV[Ac5c]HL-NH2; N-terminus assumed) ; assay system HBL 100 (Breast); Percentage cytotoxicity recorded at 16.6

GET /values?item= CCC(CC)(NC(=O)[C@H](Cc1c[nH]c2ccccc12)NC(=O)[C@H](CCC(N)=O)NC(=O)[C@H](N)Cc1ccccc1)C(=O)N[C@H](C(=O)NCC(=O)N[C@@H](Cc1c[nH]cn1)C(=O)N[C@@H](CC(C)C)C(N)=O)C(C)C [SEQ ID: 9, D-Phe-Gln-Trp-Deg-Val-Gly-His-Leu-NH2] (H-[dF]QW[Deg]VGHL-NH2; N-terminus assumed) &system= HBL 100 (Breast) returns Percentage cytotoxicity: 28.6

Tested system HBL 100 (Breast); Percentage cytotoxicity recorded for CCCC(=O)N[C@H](Cc1ccccc1)C(=O)N[C@@H](CCC(N)=O)C(=O)N[C@@H](Cc1c[nH]c2ccccc12)C(=O)N[C@@H](C)C(=O)N[C@H](C(=O)NC(C)(C)C(=O)N[C@@H](Cc1c[nH]cn1)C(=O)N[C@@H](CC(C)C)C(N)=O)C(C)C [SEQ ID: 11] (Butyryl-[dF]QWAV[Aib]HL-NH2) was 15.4

Note to self: Percentage cytotoxicity of CCCCCCCC(=O)N[C@H](Cc1ccccc1)C(=O)N[C@@H](CCC(N)=O)C(=O)N[C@@H](Cc1c[nH]c2ccccc12)C(=O)N[C@@H](C)C(=O)N[C@H](C(=O)NC(C)(C)C(=O)N[C@@H](Cc1c[nH]cn1)C(=O)N[C@@H](CC(C)C)C(N)=O)C(C)C [SEQ ID: 12] (Octanoyl-[dF]QWAV[Aib]HL-NH2) with HBL 100 (Breast) was 34.7

* * *

tested on: U87MG (Glioblastoma); assay: MTT cytotoxicity assay, 48 hours (Example 14); type: cell-based; conditions: 100 pM
Non-standard residues stand in square brackets, D forms with d. Residues, ends and D or L forms follow the SMILES beside them. *: point of attachment. Octanoyl = CCCCCCCC(=O)*; Ac5c = NC1(C(=O)O)CCCC1; Deg = CCC(N)(CC)C(=O)O; Aib = CC(C)(N)C(=O)O; Butyryl = CCCC(=O)*
Consider the following compounds; for each one, report its Percentage cytotoxicity.
Just the number in %, nothing appended.

# lookup: CCCCCCCC(=O)N[C@H](Cc1ccccc1)C(=O)N[C@@H](CCC(N)=O)C(=O)N[C@@H](Cc1c[nH]c2ccccc12)C(=O)N[C@@H](C)C(=O)N[C@H](C(=O)NC(C)(C)C(=O)N[C@@H](Cc1c[nH]cn1)C(=O)N[C@@H](CC(C)C)C(N)=O)C(C)C [SEQ ID: 12] (Octanoyl-[dF]QWAV[Aib]HL-NH2) on U87MG (Glioblastoma), Percentage cytotoxicity = 22.1

Reading of Percentage cytotoxicity for CCC(CC)(NC(=O)[C@H](Cc1c[nH]c2ccccc12)NC(=O)[C@H](CCC(N)=O)NC(=O)[C@H](N)Cc1ccccc1)C(=O)N[C@H](C(=O)NCC(=O)N[C@@H](Cc1c[nH]cn1)C(=O)N[C@@H](CC(C)C)C(N)=O)C(C)C [SEQ ID: 9, D-Phe-Gln-Trp-Deg-Val-Gly-His-Leu-NH2] (H-[dF]QW[Deg]VGHL-NH2; N-terminus assumed) with U87MG (Glioblastoma): 11.9

Param item: CC(C)C[C@H](NC(=O)[C@H](Cc1c[nH]cn1)NC(=O)C1(NC(=O)[C@@H](NC(=O)[C@H](C)NC(=O)[C@H](Cc2c[nH]c3ccccc23)NC(=O)[C@H](CCC(N)=O)NC(=O)[C@H](N)Cc2ccccc2)C(C)C)CCCC1)C(N)=O [SEQ ID: 10, D-Phe-Gln-Trp-Ala-Val-Ac5c-His-Leu-NH2] (H-[dF]QWAV[Ac5c]HL-NH2; N-terminus assumed) ; param system: U87MG (Glioblastoma); output Percentage cytotoxicity: 16.5

Measured Percentage cytotoxicity for this entry CCCC(=O)N[C@H](Cc1ccccc1)C(=O)N[C@@H](CCC(N)=O)C(=O)N[C@@H](Cc1c[nH]c2ccccc12)C(=O)N[C@@H](C)C(=O)N[C@H](C(=O)NC(C)(C)C(=O)N[C@@H](Cc1c[nH]cn1)C(=O)N[C@@H](CC(C)C)C(N)=O)C(C)C [SEQ ID: 11] (Butyryl-[dF]QWAV[Aib]HL-NH2) on U87MG (Glioblastoma): 26.5

* * *

system: SW620 (colon); assay: MTT cytotoxicity assay, 72 hours (Example 13); type: cell-based, human; conditions: SW620, 10 nM
Non-standard residues stand in square brackets, D forms with d. Residues, ends and D or L forms follow the SMILES beside them. Aib = CC(C)(N)C(=O)O
Kindly apply the following: Y if Percent Cytotoxicity is less than 30%, N in every other case.

Query block: For this compound, is Percent Cytotoxicity lower than 30%? CC[C@H](C)[C@H](NC(=O)[C@H](Cc1c[nH]cn1)NC(=O)CNC(=O)[C@@H](NC(=O)C(C)(C)NC(=O)[C@H](Cc1c[nH]c2ccccc12)NC(=O)[C@H](CCC(N)=O)NC(=O)[C@H](N)Cc1ccccc1)C(C)C)C(N)=O [SEQ ID: 6, D-Phe-Gln-Trp-Aib-Val-Gly-His-Ile-NH2] (H-[dF]QW[Aib]VGHI-NH2; N-terminus assumed)
Result block: N

Query block: I'd appreciate it if you could check whether CC[C@H](C)[C@H](NC(=O)[C@H](Cc1c[nH]cn1)NC(=O)C(C)(C)NC(=O)[C@@H](NC(=O)[C@H](C)NC(=O)[C@H](Cc1c[nH]c2ccccc12)NC(=O)[C@H](CCC(N)=O)NC(=O)[C@H](N)Cc1ccccc1)C(C)C)C(N)=O [SEQ ID: 7, D-Phe-Gln-Trp-Ala-Val-Aib-His-Ile-NH2] (H-[dF]QWAV[Aib]HI-NH2; N-terminus assumed) has Percent Cytotoxicity smaller than 30%.
Result block: Y

Query block: Please indicate whether the reported Percent Cytotoxicity of CCCC(CCC)(NC(=O)[C@@H](NC(=O)[C@H](C)NC(=O)[C@@H](Cc1c[nH]c2ccccc12)NC(=O)[C@H](CCC(N)=O)NC(=O)[C@H](N)Cc1ccccc1)C(C)C)C(=O)N[C@@H](Cc1c[nH]cn1)C(=O)N[C@@H](CC(C)C)C(N)=O is strictly below 30%.
Result block: N

Query block: # check: Percent Cytotoxicity < 30% for CC(C)C[C@H](NC(=O)[C@H](Cc1c[nH]cn1)NC(=O)CNC(=O)[C@@H](NC(=O)C(C)(C)NC(=O)[C@H](Cc1c[nH]c2ccccc12)NC(=O)[C@H](CCC(N)=O)NC(=O)[C@H](N)Cc1ccccc1)C(C)C)C(N)=O [SEQ ID: 4, D-Phe-Gln-Trp-Aib-Val-Gly-His-Leu-NH2] (H-[dF]QW[Aib]VGHL-NH2; N-terminus assumed)
Result block: Y

* * *

test system: MOLT-4 (leukemia); test: MTT cytotoxicity assay, 72 hours (Example 13); type: cell-based, human; conditions: MOLT4, 100 nM
Non-standard residues stand in square brackets, D forms with d. Residues, ends and D or L forms follow the SMILES beside them. Aib = CC(C)(N)C(=O)O
propertyLabel: Percent Cytotoxicity (%)
Report only the number, with the unit % understood.

Entry CC(C)C[C@H](NC(=O)[C@H](Cc1c[nH]cn1)NC(=O)CNC(=O)[C@@H](NC(=O)C(C)(C)NC(=O)[C@H](Cc1c[nH]c2ccccc12)NC(=O)[C@H](CCC(N)=O)NC(=O)[C@H](N)Cc1ccccc1)C(C)C)C(N)=O [SEQ ID: 4, D-Phe-Gln-Trp-Aib-Val-Gly-His-Leu-NH2] (H-[dF]QW[Aib]VGHL-NH2; N-terminus assumed) , Percent Cytotoxicity reported as 16.2

* * *

system: HeP2 (laryngeal); assay: MTT cytotoxicity assay, 48 hours (Example 14); format: cell-based; settings: HeP2, 100 pM
Non-standard residues stand in square brackets, D forms with d. Residues, ends and D or L forms follow the SMILES beside them. *: point of attachment. Octanoyl = CCCCCCCC(=O)*; Ac5c = NC1(C(=O)O)CCCC1; Deg = CCC(N)(CC)C(=O)O; Aib = CC(C)(N)C(=O)O; Butyryl = CCCC(=O)*
Would you kindly list Percentage cytotoxicity for each of these compounds?
State just the number; it will be interpreted in %.

Item: CCCC(=O)N[C@H](Cc1ccccc1)C(=O)N[C@@H](CCC(N)=O)C(=O)N[C@@H](Cc1c[nH]c2ccccc12)C(=O)N[C@@H](C)C(=O)N[C@H](C(=O)NC(C)(C)C(=O)N[C@@H](Cc1c[nH]cn1)C(=O)N[C@@H](CC(C)C)C(N)=O)C(C)C [SEQ ID: 11] (Butyryl-[dF]QWAV[Aib]HL-NH2) | Percentage cytotoxicity: 20.1

The value of Percentage cytotoxicity measured for the compound CC(C)C[C@H](NC(=O)[C@H](Cc1c[nH]cn1)NC(=O)C1(NC(=O)[C@@H](NC(=O)[C@H](C)NC(=O)[C@H](Cc2c[nH]c3ccccc23)NC(=O)[C@H](CCC(N)=O)NC(=O)[C@H](N)Cc2ccccc2)C(C)C)CCCC1)C(N)=O [SEQ ID: 10, D-Phe-Gln-Trp-Ala-Val-Ac5c-His-Leu-NH2] (H-[dF]QWAV[Ac5c]HL-NH2; N-terminus assumed) turned out to be 19.1

// field: Percentage cytotoxicity; key: CCCCCCCC(=O)N[C@H](Cc1ccccc1)C(=O)N[C@@H](CCC(N)=O)C(=O)N[C@@H](Cc1c[nH]c2ccccc12)C(=O)N[C@@H](C)C(=O)N[C@H](C(=O)NC(C)(C)C(=O)N[C@@H](Cc1c[nH]cn1)C(=O)N[C@@H](CC(C)C)C(N)=O)C(C)C [SEQ ID: 12] (Octanoyl-[dF]QWAV[Aib]HL-NH2) ; value = 24.4

Entry CCC(CC)(NC(=O)[C@H](Cc1c[nH]c2ccccc12)NC(=O)[C@H](CCC(N)=O)NC(=O)[C@H](N)Cc1ccccc1)C(=O)N[C@H](C(=O)NCC(=O)N[C@@H](Cc1c[nH]cn1)C(=O)N[C@@H](CC(C)C)C(N)=O)C(C)C [SEQ ID: 9, D-Phe-Gln-Trp-Deg-Val-Gly-His-Leu-NH2] (H-[dF]QW[Deg]VGHL-NH2; N-terminus assumed) , Percentage cytotoxicity reported as 14.6
